Below: a set of entries, each annotated with reported ELISA signal relative to background.
Target: T1, FX activation peptide 12-mer TQPERGDNNLTR (human)
T1 peptide: TQPERGDNNLTR-biotin
Test: peptide ELISA
Ends that are not written are not given here.

Record excerpt, results attached:
Requested field: ELISA signal relative to background. Item: Nb 729C08 (VHH, monovalent Nanobody; also called Nb 729008; not shown: C-terminal FLAG3 and HIS6 tag) VHH: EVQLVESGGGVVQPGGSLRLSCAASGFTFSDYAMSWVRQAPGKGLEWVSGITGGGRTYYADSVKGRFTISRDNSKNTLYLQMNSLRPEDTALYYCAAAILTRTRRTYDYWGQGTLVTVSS
1.37

What about Nb 701D07 (VHH, monovalent Nanobody; not shown: C-terminal FLAG3 and HIS6 tag) VHH: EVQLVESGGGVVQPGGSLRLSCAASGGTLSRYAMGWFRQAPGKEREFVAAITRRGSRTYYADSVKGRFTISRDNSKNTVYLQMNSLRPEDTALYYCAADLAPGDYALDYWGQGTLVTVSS ?
0.88

Then this binder: Nb 701C06 (VHH, monovalent Nanobody; not shown: C-terminal FLAG3 and HIS6 tag) VHH: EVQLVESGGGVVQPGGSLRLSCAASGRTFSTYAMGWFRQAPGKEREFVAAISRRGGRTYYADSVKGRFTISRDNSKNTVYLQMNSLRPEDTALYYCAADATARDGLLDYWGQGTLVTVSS
0.97

New cases:
ELISA signal relative to background lookup needed for Nb 729A04 (VHH, monovalent Nanobody; not shown: C-terminal FLAG3 and HIS6 tag) VHH: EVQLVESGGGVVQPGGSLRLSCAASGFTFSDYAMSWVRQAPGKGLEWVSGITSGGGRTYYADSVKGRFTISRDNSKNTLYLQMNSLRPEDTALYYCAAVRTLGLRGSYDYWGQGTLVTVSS , thanks.
1.09

Further, for Nb 721E08 (VHH, monovalent Nanobody; not shown: C-terminal FLAG3 and HIS6 tag) VHH: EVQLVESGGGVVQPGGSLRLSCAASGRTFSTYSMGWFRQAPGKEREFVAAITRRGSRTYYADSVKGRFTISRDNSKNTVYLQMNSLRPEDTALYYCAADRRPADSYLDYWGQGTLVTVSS ?
1.97

What do you have for Nb 702C12 (VHH, monovalent Nanobody; not shown: C-terminal FLAG3 and HIS6 tag) VHH: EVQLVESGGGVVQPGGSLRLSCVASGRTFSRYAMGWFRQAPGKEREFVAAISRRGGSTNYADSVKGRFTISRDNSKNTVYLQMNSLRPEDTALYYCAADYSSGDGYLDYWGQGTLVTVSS ?
1.05

Would you kindly repeat that for Nb 701B09 (VHH, monovalent Nanobody; also called Nb 701609; not shown: C-terminal FLAG3 and HIS6 tag) VHH: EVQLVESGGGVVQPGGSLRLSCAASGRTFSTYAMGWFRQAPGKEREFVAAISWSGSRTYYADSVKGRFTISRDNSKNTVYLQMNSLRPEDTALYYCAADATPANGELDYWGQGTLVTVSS ?
0.93

Same question for Nb 501A02 (VHH, monovalent control Nanobody; also called control Nanobody; not shown: C-terminal FLAG3 and HIS6 tag) VHH: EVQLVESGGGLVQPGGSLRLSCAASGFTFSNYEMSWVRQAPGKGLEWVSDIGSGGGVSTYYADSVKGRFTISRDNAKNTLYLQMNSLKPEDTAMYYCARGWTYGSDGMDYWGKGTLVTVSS please.
0.85

Try the binder Nb 730C03 (VHH, monovalent Nanobody; also called Nb 730003; not shown: C-terminal FLAG3 and HIS6 tag) VHH: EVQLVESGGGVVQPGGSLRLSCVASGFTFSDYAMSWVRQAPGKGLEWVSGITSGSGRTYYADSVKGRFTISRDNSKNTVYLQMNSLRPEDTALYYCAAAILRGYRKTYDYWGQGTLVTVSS
1.06
